Record: IC50 reported on Vasopressin V2 receptor (Rattus norvegicus, UniProt Q00788).
Sequence (Q00788 whole entry): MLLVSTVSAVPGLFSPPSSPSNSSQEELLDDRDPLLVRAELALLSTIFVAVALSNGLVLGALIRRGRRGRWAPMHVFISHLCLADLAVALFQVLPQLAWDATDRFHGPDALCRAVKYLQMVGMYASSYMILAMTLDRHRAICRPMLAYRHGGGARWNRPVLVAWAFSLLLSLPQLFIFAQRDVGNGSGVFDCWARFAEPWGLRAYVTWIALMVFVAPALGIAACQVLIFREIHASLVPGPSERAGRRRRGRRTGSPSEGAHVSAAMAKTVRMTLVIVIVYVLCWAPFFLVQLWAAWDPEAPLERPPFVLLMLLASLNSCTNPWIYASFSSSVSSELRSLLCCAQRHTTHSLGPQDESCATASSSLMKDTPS

Worked cases, answers included:
# SMILES INPUT, IC50
records = [
    ("O=CNCCCCOc1ccc(C(=O)N2CCC(N3C(=O)CCc4ccccc43)CC2)cc1", "> 100 µM"),
    ("NCCCOc1ccc(C(=O)N2CCC(N3C(=O)CCc4ccccc43)CC2)cc1", "> 100 µM"),
]

// below: IC50 requested for another molecule
Fill in IC50 for record COc1ccc(C(=O)N2CCC(N3C(=O)CCc4ccccc43)CC2)cc1
> 100 µM

====

# SYSTEM TESTED: Vasopressin V1a receptor (Rattus norvegicus, UniProt P30560)
# Sequence (P30560 whole entry): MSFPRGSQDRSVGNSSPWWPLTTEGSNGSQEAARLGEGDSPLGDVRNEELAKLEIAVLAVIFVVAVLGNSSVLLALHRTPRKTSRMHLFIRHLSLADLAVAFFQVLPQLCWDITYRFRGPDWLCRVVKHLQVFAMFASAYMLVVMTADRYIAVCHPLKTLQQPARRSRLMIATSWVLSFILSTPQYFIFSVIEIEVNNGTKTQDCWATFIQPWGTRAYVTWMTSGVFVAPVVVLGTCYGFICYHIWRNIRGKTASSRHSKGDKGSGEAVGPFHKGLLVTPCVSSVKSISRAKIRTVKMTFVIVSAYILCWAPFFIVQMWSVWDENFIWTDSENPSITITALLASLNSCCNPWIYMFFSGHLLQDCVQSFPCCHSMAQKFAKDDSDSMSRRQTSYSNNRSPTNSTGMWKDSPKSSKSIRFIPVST
ASSAY METRIC: IC50 (µM)
Answers are plain numbers, in µM.

# SMILES INPUT, READOUT UNIT, REPORTED RESULT
measured = [
    ("O=C(c1ccncc1)N1CCC(N2C(=O)CCc3ccccc32)CC1", "µM", 37),
    ("N#Cc1ccc(C(=O)N2CCC(N3C(=O)CCc4ccccc43)CC2)cc1", "µM", 3.1),
    ("COC(=O)NCCCOc1ccc(C(=O)N2CCC(N3C(=O)CCc4ccccc43)CC2)cc1", "µM", 0.36),
    ("CCOc1ccc(C(=O)N2CCC(N3C(=O)CCc4ccccc43)CC2)cc1", "µM", 0.21),
]

Dear reader, for each entry below, please note its IC50.
1. CCCc1ccc(C(=O)N2CCC(N3C(=O)CCc4ccccc43)CC2)cc1
2. O=C(c1ccccc1Cl)N1CCC(N2C(=O)CCc3ccccc32)CC1
3. CC(=O)NCCCOc1ccc(C(=O)N2CCC(N3C(=O)CCc4ccccc43)CC2)cc1

1. 0.33
2. 9.9
3. 0.44

Dear reader, for each entry below, please note its IC50.
1. CC(=O)NCCCCCCCCOc1ccc(C(=O)N2CCC(N3C(=O)CCc4ccccc43)CC2)cc1
2. Cc1ccccc1C(=O)N1CCC(N2C(=O)CCc3ccccc32)CC1
3. CC(=O)Oc1cccc(C(=O)N2CCC(N3C(=O)CCc4ccccc43)CC2)c1
4. Nc1ccc(C(=O)N2CCC(N3C(=O)CCc4ccccc43)CC2)cc1
5. CN(C)c1ccc(C(=O)N2CCC(N3C(=O)CCc4ccccc43)CC2)cc1

[0.3, 8.4, 3.7, 3.7, 0.47]

Fill in IC50 for record CCCCOc1ccc(C(=O)N2CCC(N3C(=O)CCc4ccccc43)CC2)cc1
0.42
